- target.desc: NL20 human bronchial epithelial cells expressing human Z-AAT (Homo sapiens, UniProt P01009, E366K)
- Construct: doxycycline added with compounds)
- Sequence (P01009 25-418 E366K): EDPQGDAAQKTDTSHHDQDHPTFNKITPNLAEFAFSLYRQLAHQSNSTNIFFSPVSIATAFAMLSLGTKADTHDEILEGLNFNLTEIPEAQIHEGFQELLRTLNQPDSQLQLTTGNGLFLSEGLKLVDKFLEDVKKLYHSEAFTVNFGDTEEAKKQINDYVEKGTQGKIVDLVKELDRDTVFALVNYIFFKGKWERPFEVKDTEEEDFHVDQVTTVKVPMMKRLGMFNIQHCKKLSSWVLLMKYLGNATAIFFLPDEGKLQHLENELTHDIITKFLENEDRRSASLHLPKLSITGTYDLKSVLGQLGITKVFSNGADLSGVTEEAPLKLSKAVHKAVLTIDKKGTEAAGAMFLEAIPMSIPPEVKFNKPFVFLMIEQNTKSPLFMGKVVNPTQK
- procedure.details: AAT Function Assay (MSD Assay NL20-SI Cell Line)
- conditions: read-out: NL20 Functional EC50
metric.name: EC50

Exercise: Report measured EC50; entry is Cc1cc(-n2c(C3CCOCC3)c(-c3ccc(OCC(=O)O)cc3F)c3c(O)cc(F)cc32)ccc1F [Compound 22]
Key: 500 to 2000 nM

Exercise: Report measured EC50; entry is O=C(O)c1ccc(-c2c(C3CCOCC3)n(-c3ccc(F)c(F)c3)c3ccc(F)c(O)c23)cc1 [Compound 8]
Key: < 500 nM

Exercise: Report measured EC50; entry is CS(=O)(=O)N1CCCC(c2c(-c3ccc(C(=O)O)cc3)c3c(O)cccc3n2-c2ccc(F)cc2)C1 (stereo not shown) [Compound 201]
Key: > 2000 nM

Exercise: Report measured EC50; entry is COCC(C)(C)c1c(-c2ccc(C(=O)O)cc2)c2c(O)cc(F)cc2n1-c1ccc(F)c(C)c1 [Compound 350]
Key: < 500 nM

Exercise: Report measured EC50; entry is COCC(C)(C)c1c(-c2ccc(C(=O)O)cc2)c2cc(F)c(F)cc2n1-c1ccc(F)c(OC)c1 [Compound B20]
Key: < 500 nM

Exercise: Report measured EC50; entry is Cc1cc(-n2c(C(C)C)c(CC3(C(=O)O)CC3)c3cc(F)ccc32)ccc1F [Compound W3]
Key: > 2000 nM

Exercise: Report measured EC50; entry is COc1cc(-c2c(C3CCOCC3)n(-c3ccc(F)c(F)c3)c3cc(F)cc(O)c23)ccc1C(=O)O [Compound 515]
Key: 500 to 2000 nM

###

Record form. Attribute: pEC50. Fill in for each entry.
- target.desc: NL20 human bronchial epithelial cells expressing human Z-AAT (Homo sapiens, UniProt P01009, E366K)
- Construct: doxycycline added with compounds)
- procedure.details: AAT Function Assay (MSD Assay NL20-SI Cell Line)
- conditions: read-out: NL20 Functional EC50
pEC50: −log10 of the molar value.

Exercise: Report measured pEC50; entry is COCC(C)(COC)c1c(-c2ccc(C(=O)O)cc2)c2c(O)c(F)ccc2n1-c1ccc(F)cc1 [Compound 157]
Key: 5.70 to 6.30

Exercise: Report measured pEC50; entry is Cc1cc(-n2c(C(C)(C)CC#N)c(-c3cc(C(=O)O)cs3)c3c(O)cc(F)cc32)ccc1F [Compound 371]
Key: > 6.30

Exercise: Report measured pEC50; entry is COc1cc(-n2c(C3(CC#N)CCC3)c(-c3ccc(C(=O)O)cc3)c3cc(F)c(F)cc32)ccc1F [Compound B21]
Key: > 6.30

Exercise: Report measured pEC50; entry is O=C(O)c1ccc(-c2c(C3CCOCC3)n(-c3ccc(F)c(Cl)c3)c3cccc(O)c23)cc1F [Compound 19]
Key: > 6.30

Exercise: Report measured pEC50; entry is CS(=O)(=O)c1ccc(-c2c(C3CCOCC3)n(-c3ccc(F)c(F)c3)c3cc(F)cc(O)c23)cn1 [Compound 250]
Key: 5.70 to 6.30

Exercise: Report measured pEC50; entry is Cc1c(F)cc2c(c1O)c(-c1ccc(C(=O)O)cc1)c(C(C)(C)CC#N)n2-c1ccc(F)c(F)c1 [Compound 293]
Key: 5.70 to 6.30

Exercise: Report measured pEC50; entry is COc1cc(-n2c(C(C)(C)C3COC3)c(-c3ccc(C(=O)O)c(OC)c3)c3c(O)cc(F)cc32)ccc1F [Compound 527]
Key: 5.70 to 6.30
